Recorded EC50 for the following compounds
Target Or System: CDK12/Cyclin K (Homo sapiens)
Sequence (O75909 whole entry): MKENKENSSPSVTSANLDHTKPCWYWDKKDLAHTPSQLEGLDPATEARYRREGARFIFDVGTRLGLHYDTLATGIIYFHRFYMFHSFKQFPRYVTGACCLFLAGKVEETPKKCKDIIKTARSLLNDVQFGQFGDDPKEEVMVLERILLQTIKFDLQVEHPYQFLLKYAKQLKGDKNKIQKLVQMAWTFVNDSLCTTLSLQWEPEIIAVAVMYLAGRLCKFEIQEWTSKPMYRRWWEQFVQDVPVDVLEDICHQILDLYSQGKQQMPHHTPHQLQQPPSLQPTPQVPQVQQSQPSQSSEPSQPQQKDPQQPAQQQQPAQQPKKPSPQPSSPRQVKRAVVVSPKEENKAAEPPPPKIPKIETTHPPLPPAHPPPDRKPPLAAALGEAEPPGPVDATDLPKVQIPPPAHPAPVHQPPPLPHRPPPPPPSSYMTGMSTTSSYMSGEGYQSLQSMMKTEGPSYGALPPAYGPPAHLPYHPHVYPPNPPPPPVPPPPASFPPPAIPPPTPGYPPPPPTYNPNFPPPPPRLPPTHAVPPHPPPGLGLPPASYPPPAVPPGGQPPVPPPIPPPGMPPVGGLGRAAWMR
Sequence (Q9NYV4 whole entry): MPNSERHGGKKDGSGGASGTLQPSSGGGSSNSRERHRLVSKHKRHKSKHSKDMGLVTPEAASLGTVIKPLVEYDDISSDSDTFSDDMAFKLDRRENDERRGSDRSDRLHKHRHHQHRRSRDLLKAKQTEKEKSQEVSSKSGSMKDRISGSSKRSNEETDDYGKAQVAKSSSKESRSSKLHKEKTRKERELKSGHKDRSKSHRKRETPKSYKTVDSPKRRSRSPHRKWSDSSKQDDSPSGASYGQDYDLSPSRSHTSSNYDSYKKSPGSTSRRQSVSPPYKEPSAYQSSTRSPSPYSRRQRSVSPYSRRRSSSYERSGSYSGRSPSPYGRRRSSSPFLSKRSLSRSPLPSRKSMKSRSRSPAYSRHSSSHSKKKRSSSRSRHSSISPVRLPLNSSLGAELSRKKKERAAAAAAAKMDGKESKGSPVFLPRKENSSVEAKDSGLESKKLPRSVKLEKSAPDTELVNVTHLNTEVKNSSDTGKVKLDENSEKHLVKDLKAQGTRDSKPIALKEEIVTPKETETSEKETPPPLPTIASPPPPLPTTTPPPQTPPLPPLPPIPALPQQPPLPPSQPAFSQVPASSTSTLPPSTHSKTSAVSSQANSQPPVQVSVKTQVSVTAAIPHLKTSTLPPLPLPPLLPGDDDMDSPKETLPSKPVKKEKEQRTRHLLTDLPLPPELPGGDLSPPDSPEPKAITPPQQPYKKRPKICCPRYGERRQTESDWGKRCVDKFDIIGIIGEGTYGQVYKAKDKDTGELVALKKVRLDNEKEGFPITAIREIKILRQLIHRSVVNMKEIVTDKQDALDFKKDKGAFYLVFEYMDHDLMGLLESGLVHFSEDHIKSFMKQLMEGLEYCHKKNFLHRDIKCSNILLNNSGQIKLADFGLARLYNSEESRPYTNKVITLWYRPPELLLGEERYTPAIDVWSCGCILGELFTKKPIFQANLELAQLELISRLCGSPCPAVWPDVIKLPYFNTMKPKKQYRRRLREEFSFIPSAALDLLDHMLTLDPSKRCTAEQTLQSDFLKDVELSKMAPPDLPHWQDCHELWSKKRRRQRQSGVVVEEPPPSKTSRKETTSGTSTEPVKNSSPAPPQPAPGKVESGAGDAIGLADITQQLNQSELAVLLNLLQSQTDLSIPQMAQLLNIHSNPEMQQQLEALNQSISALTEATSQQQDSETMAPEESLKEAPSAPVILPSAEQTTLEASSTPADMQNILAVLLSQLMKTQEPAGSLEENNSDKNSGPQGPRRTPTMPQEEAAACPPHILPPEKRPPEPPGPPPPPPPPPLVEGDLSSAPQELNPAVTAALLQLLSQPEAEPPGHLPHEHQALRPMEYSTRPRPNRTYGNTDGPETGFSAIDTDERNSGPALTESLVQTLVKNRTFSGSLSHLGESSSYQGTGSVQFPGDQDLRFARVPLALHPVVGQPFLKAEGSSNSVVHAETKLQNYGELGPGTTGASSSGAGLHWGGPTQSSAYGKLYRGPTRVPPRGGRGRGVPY
Test Name: Inhibition of 6His-tagged wild type CDK12/cyclin K (unknown origin) infected in insect cells incubated for 1 hr by TR-FRET assay
Please give a number only; it is taken to be in nM.

# count of solved cases: 3
{"columns": ["Compound Structure", "Observation Type", "Readout Number"],
 "data": [
  ["CC[C@H](CO)Nc1nc(NCCCc2ccc(C)c(C)c2)c2ncn(C(C)C)c2n1", "EC50", 18],
  ["CC[C@H](CO)Nc1nc(NCc2ccc(-c3ccncc3)cc2)c2ncn(C(C)C)c2n1", "EC50", 36],
  ["CC[C@H](CO)Nc1nc(NCc2ccc(-c3ccc(C)s3)cc2)c2ncn(C(C)C)c2n1", "EC50", 15]
]}

Any idea what its EC50 is? The compound is CC[C@H](CO)Nc1nc(NCCCc2cccc(F)c2)c2ncn(C(C)C)c2n1
46

Next compound: CC[C@H](CO)Nc1nc(NCc2ccc(-c3ccccn3)c(=O)[nH]2)c2ncn(C(C)C)c2n1
21

Next compound: CC[C@H](CO)Nc1nc(NCCCc2ccccc2)c2ncn(C(C)C)c2n1
57

Next compound: CC[C@H](CO)Nc1nc(NCc2ccn(-c3cccc(Cl)c3)n2)c2ncn(C(C)C)c2n1
44

Next compound: CC[C@H](CO)Nc1nc(NCc2ccc(-c3ccccc3)cc2)c2ncn(C(C)C)c2n1
17

Next compound: CC[C@H](CO)Nc1nc(NCc2nc3ccc(F)c(F)c3[nH]2)c2ncn(C(C)C)c2n1
41

---

Target Or System: CDK12/Cyclin K (Homo sapiens)
Test Name: Inhibition of 6His-tagged wild type CDK12/cyclin K (unknown origin) infected in insect cells incubated for 1 hr by TR-FRET assay
Observation Type: pEC50
Reminder that pEC50 means the negative base-10 logarithm of the concentration expressed in mol/L.

# count of solved cases: 2
{"columns": ["Compound Structure", "Readout Number"],
 "data": [
  ["CC[C@H](CO)Nc1nc(NCc2ccc(-c3ccncc3)nc2)c2ncn(C(C)C)c2n1", 7.55],
  ["CC[C@H](CO)Nc1nc(NCCCc2cccc(C)c2)c2ncn(C(C)C)c2n1", 7.46]
]}

Any idea what its pEC50 is? The molecule is CC[C@H](CO)Nc1nc(NCc2ccc3ccccc3c2)c2ncn(C(C)C)c2n1
7.22

Next molecule: CC[C@H](CO)Nc1nc(NCCCc2ccco2)c2ncn(C(C)C)c2n1
6.22

Next molecule: CC[C@H](CO)Nc1nc(NCCCCCc2cccc3ccccc23)c2ncn(C(C)C)c2n1
6.74

Next molecule: CC[C@H](CO)Nc1nc(NCCCc2ccc(Cl)c(Cl)c2)c2ncn(C(C)C)c2n1
7.68

Next molecule: CC[C@H](CO)Nc1nc(NCCCc2ccnn2C)c2ncn(C(C)C)c2n1
6.61

Next molecule: CC[C@H](CO)Nc1nc(NCCCc2cccc(C)n2)c2ncn(C(C)C)c2n1
7.44

Next molecule: CC[C@H](CO)Nc1nc(NCc2ccc(-c3ccccn3)c(F)c2)c2ncn(C(C)C)c2n1
7.11
